Origin of measurements: patent US20120121583A1

Recorded IL8-Secretion values for a group of binders are listed next.
# target_or_system: T1, Human recombinant soluble TWEAK (human, UniProt O43508 99-249)
# T1 sequence: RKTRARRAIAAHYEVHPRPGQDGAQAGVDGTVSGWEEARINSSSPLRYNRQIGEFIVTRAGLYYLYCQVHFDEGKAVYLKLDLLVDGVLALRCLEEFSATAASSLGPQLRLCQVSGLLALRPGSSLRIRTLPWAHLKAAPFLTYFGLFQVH
# assay_procedure: cell-based or functional assay
test_readout: IL8-Secretion (ng/mL)

binder	test_readout	units_symbol	assay_result
Antibody 32 (antibody, V domains shown, Humanized variant of antibody 305; also called humanized 305 variant 305-LC6 / 305-HC8) VH: EVQLLESGGGLVQPGGSLRLSCAASGFDFSTYYMSWVRQAPGKGLEWVSTVYVRQGTTYYASWLNGRFTISRDNSKNTLDLQMNSLRAEDTAVYYCAKGGYNYDDAFVIWGQGTLVTVSS VL: DIQMTQSPSTLSASVGDRVTITCQASQNIYSNLAWYQQKPGKAPKLLIYTASYLASGVPSRFSGSGSGTEFTLTISSLQPDDFATYYCQTAYYNSRPDTVAFGGGTKVEIK	IL8-Secretion	ng/mL	134
Antibody 33 (antibody, V domains shown, Humanized variant of antibody 305; also called humanized 305 variant 305-LC4 / 305-HC4) VH: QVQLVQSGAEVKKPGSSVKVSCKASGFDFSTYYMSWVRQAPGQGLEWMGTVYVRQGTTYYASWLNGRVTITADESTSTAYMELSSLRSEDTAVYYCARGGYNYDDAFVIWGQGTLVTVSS VL: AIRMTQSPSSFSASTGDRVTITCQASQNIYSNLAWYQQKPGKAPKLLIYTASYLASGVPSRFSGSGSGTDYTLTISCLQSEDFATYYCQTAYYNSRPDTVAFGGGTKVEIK	IL8-Secretion	ng/mL	26
Antibody 34 (antibody, V domains shown, Humanized variant of antibody 305; also called humanized 305 variant 305-LC4 / 305-HC2) VH: EVQLLESGGGLVQPGGSLRLSCAASGFDFSTYYMSWVRQAPGKGLEWVSTVYVRQGTTYYASWLNGRFTISRDNSKNTLYLQMNSLRAEDTAVYYCAKGGYNYDDAFVIWGQGTLVTVSS VL: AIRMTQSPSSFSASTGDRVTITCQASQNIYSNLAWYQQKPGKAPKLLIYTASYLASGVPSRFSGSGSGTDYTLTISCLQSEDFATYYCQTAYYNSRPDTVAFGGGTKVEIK	IL8-Secretion	ng/mL	24
